target: T1, PIK3R1 N-terminal SH2 domain (human); assay: SPR; Biacore 3000; 6X His SH2 proteins held on a Ni-NTA chip, dye-free peptides in solution, equilibrium; details: both partners purified
T1 construct: PIK3R1, human; source: bacterial expression, purified
Non-standard residues stand in square brackets, D forms with d. No end group written: not given here. pY = N[C@@H](Cc1ccc(OP(=O)(O)O)cc1)C(=O)O
I'd be grateful if you could share measured Kd for these entries.
Express the result in nM but write the number alone.

Please list Kd recorded for the binder QEAN[pY]VPMTPGTD [Gab1 pY472 phosphopeptide, dye-free]
251

For PDPL[pY]EVMLKCW [MET pY1313 phosphopeptide, dye-free] , write its Kd.
53

Let me know recorded Kd for DPQD[pY]LLLINCQD [Gab1 pY183 phosphopeptide, dye-free] , thanks.
722
